Cited source: ChEMBL document CHEMBL5370629

Target: Phosphatidylserine lipase ABHD16A (Homo sapiens) (UniProt O95870)
Sequence (O95870 whole entry): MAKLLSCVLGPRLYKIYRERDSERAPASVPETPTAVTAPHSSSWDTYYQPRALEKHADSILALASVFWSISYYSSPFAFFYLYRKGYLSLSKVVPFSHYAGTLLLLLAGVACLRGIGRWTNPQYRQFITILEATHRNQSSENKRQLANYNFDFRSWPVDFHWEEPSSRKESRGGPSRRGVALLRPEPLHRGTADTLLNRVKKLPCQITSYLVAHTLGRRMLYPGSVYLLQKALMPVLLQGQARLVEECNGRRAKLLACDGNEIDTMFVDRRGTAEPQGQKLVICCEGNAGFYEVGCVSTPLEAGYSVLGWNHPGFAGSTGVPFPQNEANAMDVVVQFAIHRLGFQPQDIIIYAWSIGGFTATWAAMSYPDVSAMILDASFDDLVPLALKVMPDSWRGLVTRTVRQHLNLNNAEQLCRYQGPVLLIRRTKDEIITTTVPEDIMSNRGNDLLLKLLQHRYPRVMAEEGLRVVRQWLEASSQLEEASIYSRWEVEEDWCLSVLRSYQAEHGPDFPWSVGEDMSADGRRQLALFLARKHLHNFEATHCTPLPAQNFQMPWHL
Test: Inhibition of azido-fluorophosphonate probe binding to human ABHD16A expressed in HEK293T cells at 100 uM incubated for 1 hr followed by azido-fluorophosphonate addition and measured after 1 hr by fluorescent Western blotting analysis relative to control
Assay type: cell-based
Details: time 2.0 hrs
Rule: inhibition under 50% gives Not fulfilled, otherwise Fulfilled.

Kindly determine if inhibition recorded for CC(=O)c1nc(-c2cc3c(cc2C(C)C)CC[C@H]2[C@](C)(C(N)=O)CCC[C@]32C)cs1 is above or exactly 50%.
Not fulfilled

Further, for COC(=O)[C@]1(C)CCC[C@]2(C)c3cc(-c4csc(COC(C)=O)n4)c(C(C)C)cc3CC[C@@H]12 ?
Not fulfilled

Further, for CC(C)c1cc2c(cc1-c1csc([C@H](C)O)n1)[C@@]1(C)CCC[C@@](C)(C(N)=O)[C@@H]1CC2 ?
Not fulfilled

Further, for COC(=O)[C@]1(C)CCC[C@]2(C)c3cc(-c4csc(C)n4)c(C(C)C)cc3C(=O)C[C@@H]12 ?
Fulfilled

Further, for COC(=O)[C@]1(C)CCC[C@]2(C)c3cc(-c4csc([C@H](C)O)n4)c(C(C)C)cc3CC[C@@H]12 ?
Not fulfilled
